Molecular target: AD, PSP, CBD, MSA-P, PD and control brain homogenates
Assay: Saturation binding assays with [^3H]GMC-058 in brain homogenates
Details: AD brain homogenates
Observed Property: Kd (nM)
// note: answer is a bare numeric in nM

For the compound shown here, [3H]c1cc(N2CCN(c3ccc(NC(=O)C(C)(C)C)cc3)CC2)ccc1OC [[^3H]GMC-058] , give the reported Kd.
5.4

====

Please go through the items and note down their log10 of Ki.
Molecular target: Aβ fibrils (Homo sapiens, UniProt P05067)
Sequence (P05067 672-711 limits assumed): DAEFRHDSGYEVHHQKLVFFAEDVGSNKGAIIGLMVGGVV
Assay: [^3H]PiB binding displacement on AD brain homogenates
Details: AD brain homogenate, 1 nM [^3H]PiB
The base-10 logarithm of Ki, taken with Ki in nM, is what appears here.

What reported log10 of Ki corresponds to "O=C(Nc1ccc(N2CCN(Cc3ccc(Cl)c(Cl)c3)CC2)cc1)c1cnccn1" on Aβ fibrils (Homo sapiens, UniProt P05067)?
2.95

What reported log10 of Ki corresponds to "C[C@@H](C(=O)Nc1ccc(N2CCN(c3ccc(C#N)cn3)CC2)cc1)c1ccccc1" on Aβ fibrils (Homo sapiens, UniProt P05067)?
3.54

What reported log10 of Ki corresponds to "COc1ccccc1CC(=O)Nc1ccc(N2CCN(c3ccc(F)cc3)CC2)nc1" on Aβ fibrils (Homo sapiens, UniProt P05067)?
2.61

What reported log10 of Ki corresponds to "COc1ccc(-c2ccc(NC(=O)N3CCN(c4ccc(C#N)cn4)CC3)cc2C#N)cc1" on Aβ fibrils (Homo sapiens, UniProt P05067)?
3.42

What reported log10 of Ki corresponds to "COc1ccccc1CC(=O)Nc1ccc(N2CCN(c3ccc(F)cc3)CC2)cc1C#N" on Aβ fibrils (Homo sapiens, UniProt P05067)?
2.91

What reported log10 of Ki corresponds to "COc1ccc(/C=C/c2ccc(N3CCN(c4ccc(C#N)cn4)CC3)cc2)cn1" on Aβ fibrils (Homo sapiens, UniProt P05067)?
1.80

What reported log10 of Ki corresponds to "COc1ccc(CC(=O)Nc2ccc(N3CCN(c4ccc(C#N)cn4)CC3)cc2)cc1" on Aβ fibrils (Homo sapiens, UniProt P05067)?
2.15
